Just for reference, patent US20180334496A1 is where these values come from.

# SYSTEM UNDER TEST: T1, human Complement Factor D (CFD), purified from human serum (human, UniProt P00746 26-253)
# T1 construct: serum purified (CompTech A136); also called serum purified CFD; hCFD-Comptech
# T1 sequence (P00746 26-253): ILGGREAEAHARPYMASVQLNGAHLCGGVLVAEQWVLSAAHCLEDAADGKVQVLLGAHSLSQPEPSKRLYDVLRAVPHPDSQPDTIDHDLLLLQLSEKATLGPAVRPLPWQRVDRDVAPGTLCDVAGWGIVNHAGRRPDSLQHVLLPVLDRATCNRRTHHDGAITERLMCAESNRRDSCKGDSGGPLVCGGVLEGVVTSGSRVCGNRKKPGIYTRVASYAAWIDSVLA
# ASSAY NOTES: SPR MX96, mAbs amine-coupled, CFD injected
pKd: −log10 of the molar value.
QUANTITY NAME: pKd

[
  {
    "BINDER": "KCD010 (antibody, V domains shown) VH: EVLLQQSGPELVKPGASVKIPCKASGYTFTDYDMDWVKQSHGKSLEWIGHINPNNGGTIYNQKFKGKATLTVDKSSSTAYMELRSLTSEDTAVYYCGTGDFAYWGHGTLVTVSA VL: QIVLTQSPAIMSVSPGEKVTLTCSASSSVSSSYLYWYQKKPGSSPKLWIYSTSNLASGVPARFSGSGSGTSYSLTISSMEAEDAASYFCHQWSSYPPTFGAGTKLELK",
    "QUANTITY NAME": "pKd",
    "OBSERVED RESULT": 8.52
  },
  {
    "BINDER": "KCD005 (antibody, V domains shown) VH: EVQLQQSGPELVKPGASVKISCKASGYTFTDHYMNWVKQSHGKSLEWIGDINPNNGGTSCNQKFKGKATLTVDKSSSTAYMELRSLTSGDSAVYYCTREGASFAFWGQGTLVTVSA VL: DVLMTQTPLSLPVSLGDQASISCRSSQSIVHSNGDTYLEWYLQKPGQSPKLLIYKVSNRFSGVPDRFSGSGSGTDFTLKISRVEAEDLGVYYCFQGSHVPVTFGAGTKLELK",
    "QUANTITY NAME": "pKd",
    "OBSERVED RESULT": 8.86
  }
]
